- EXPERIMENTAL SYSTEM: Thromboxane-A synthase (Rattus norvegicus)
- Sequence (P49430 whole entry): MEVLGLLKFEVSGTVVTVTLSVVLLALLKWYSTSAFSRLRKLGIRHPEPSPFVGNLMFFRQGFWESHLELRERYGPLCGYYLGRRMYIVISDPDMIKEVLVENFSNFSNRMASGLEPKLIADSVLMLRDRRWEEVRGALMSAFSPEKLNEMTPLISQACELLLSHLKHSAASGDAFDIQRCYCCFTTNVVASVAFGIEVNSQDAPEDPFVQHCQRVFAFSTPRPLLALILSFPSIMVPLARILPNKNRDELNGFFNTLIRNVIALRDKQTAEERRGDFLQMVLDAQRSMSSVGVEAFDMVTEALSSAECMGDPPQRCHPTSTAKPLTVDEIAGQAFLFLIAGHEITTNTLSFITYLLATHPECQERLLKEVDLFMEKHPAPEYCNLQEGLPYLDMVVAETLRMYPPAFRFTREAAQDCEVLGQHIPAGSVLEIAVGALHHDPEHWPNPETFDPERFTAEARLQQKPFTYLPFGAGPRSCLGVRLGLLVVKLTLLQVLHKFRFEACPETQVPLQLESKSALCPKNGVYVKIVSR
- ASSAY DETAILS: In vitro inhibition of thromboxane-A2 synthase in rat whole blood during clotting at 37 degrees Centigrade
RECORDED METRIC: IC50 (nM)

# count of solved cases: 6
O=C(O)CCCCO/N=C(\C1CCCCC1)C(Cc1ccccn1)n1ccnc1 (configuration not stated) | 300
O=C(O)CCCCO/N=C(\C1CCCCC1)C(Cc1ccco1)n1ccnc1 (configuration not stated) | 100
O=C(O)CCCCO/N=C(/c1ccccc1)C(Cc1ccc(F)cc1)n1ccnc1 (configuration not stated) | 60
C/C(=N\OCCCCC(=O)O)C(Cc1ccccc1)n1ccnc1 (configuration not stated) | 200
O=C(O)CCCCO/N=C(/C1CCCCC1)C(Cc1cccc(F)c1)n1ccnc1 (configuration not stated) | 250
O=C(O)CCCCO/N=C(/C1CCCCC1)C(Cc1ccccc1)n1ccnc1 (configuration not stated) | 100

P = O=C(O)CCCCO/N=C(/c1ccccc1)C(Cc1ccc(Cl)cc1)n1ccnc1 (configuration not stated)
Q = O=C(O)CCCCO/N=C(\Cn1ccnc1)C1CCCCC1
Req: Higher IC50 between P and Q ? Bench note: the answer is the label of the chosen record.
Resp: P
(P: 250 nM, Q: 40 nM)

P = O=C(O)CCCCO/N=C(\C1CCCCC1)C(Cc1ccccc1F)n1ccnc1 (configuration not stated)
Q = O=C(O)CCCCO/N=C(\c1ccccc1)C(Cc1ccccc1)n1ccnc1 (configuration not stated)
Req: Please indicate which entry, P or Q , has the lower recorded IC50 value. Bench note: the answer is the label of the chosen record.
Resp: Q
(Q: 50 nM, P: 350 nM)

1 = O=C(O)CCCCO/N=C(\Cn1ccnc1)c1ccccc1
2 = CCCCCC/C(=N\OCCCCC(=O)O)C(Cc1ccccc1)n1ccnc1 (configuration not stated)
Req: Higher IC50 between 1 and 2 ? Bench note: the answer is the label of the chosen record.
Resp: 1
(1: 170 nM, 2: 50 nM)

P = O=C(O)CCCCO/N=C(/Cn1ccnc1)c1ccccc1
Q = CCOC(=O)CCCCO/N=C(\C1CCCCC1)C(Cc1ccccc1)n1ccnc1 (configuration not stated)
Req: Please indicate which entry, P or Q , has the lower recorded IC50 value. Bench note: the answer is the label of the chosen record.
Resp: P

###

# reported IC50; entries follow
- EXPERIMENTAL SYSTEM: Thromboxane-A synthase (Rattus norvegicus)
- ASSAY DETAILS: In vitro inhibition of thromboxane-A2 synthase in rat whole blood during clotting at 37 degrees Centigrade

# count of solved cases: 2
O=C(O)Cc1ccc(CCNS(=O)(=O)c2ccc(Cl)cc2)cc1 [DALTROBAN] | > 100 µM
O=C(O)CCCCCO/N=C(/c1ccccc1)C(Cc1ccccc1)n1ccnc1 (stereo not drawn) | > 1 µM

Kindly review the next compound as well.
Req: Find IC50 (Thromboxane-A synthase (Rattus norvegicus)) for the entry O=C(O)CCCO/N=C(\Cn1ccnc1)c1ccccc1
Resp: > 1 µM
